Target: High affinity choline transporter 1 (Rattus norvegicus)
Sequence (Q9JMD7 whole entry): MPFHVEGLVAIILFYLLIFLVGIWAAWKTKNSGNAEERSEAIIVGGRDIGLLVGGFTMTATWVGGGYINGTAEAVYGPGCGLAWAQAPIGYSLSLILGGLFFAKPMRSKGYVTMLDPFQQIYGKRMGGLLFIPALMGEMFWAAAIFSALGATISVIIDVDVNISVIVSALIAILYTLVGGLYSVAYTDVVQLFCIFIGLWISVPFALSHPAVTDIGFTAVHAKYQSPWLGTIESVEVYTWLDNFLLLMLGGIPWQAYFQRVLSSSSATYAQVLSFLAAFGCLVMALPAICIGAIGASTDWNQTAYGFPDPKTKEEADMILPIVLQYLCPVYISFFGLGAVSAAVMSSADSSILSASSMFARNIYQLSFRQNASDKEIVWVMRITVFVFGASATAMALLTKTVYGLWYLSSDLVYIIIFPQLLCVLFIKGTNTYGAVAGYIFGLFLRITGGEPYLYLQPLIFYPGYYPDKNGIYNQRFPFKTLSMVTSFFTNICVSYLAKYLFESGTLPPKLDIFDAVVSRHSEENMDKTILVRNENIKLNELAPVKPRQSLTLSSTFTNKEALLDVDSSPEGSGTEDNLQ
pKi: −log10 of the molar value.
quantity.name: pKi

- compound: "C[N+]1(C)CCO[C@@](O)(c2ccc(-c3ccc([C@@]4(O)C[N+](C)(C)CCO4)cc3)cc2)C1 [HEMICHOLINIUM DIBROMIDE]"
  assayed.system: "High affinity choline transporter 1 (Rattus norvegicus)"
  number: 8.00
